- EXPERIMENTAL_SYSTEM: human orexin type 2 receptor (hOX2R) (Homo sapiens (Human))
- MEASUREMENT_PROTOCOL: Measurement of orexin type 2 receptor agonist activity (Experimental Example 2-1, FLIPR TETRA, intracellular Ca2+)
- Format: cell-based
- CONDITION_NOTES: CHO dhfr- cells expressing hOX2R, FLIPR TETRA, Fluo-4AM
- Description: To obtain a cell clone stably expressing human orexin type 2 receptor, human orexin type 2 receptor cDNA was inserted into pcDNA3.1(+) plasmid vector (Invitrogen), and a plasmid DNA for expression of human orexin type 2 receptor (pcDNA3.1(+)/hOX2R) was cloned. The plasmid DNA was introduced into CHO-dhfr cell by an electroporation method, and human orexin type 2 receptor expressing clone cells were obtained by limiting dilution method by using G418 drug resistance as a selection marker. […]
pEC50: −log10 of the molar value.

MOLECULE: CC(C)OC(=O)N1CCC[C@H](NS(C)(=O)=O)[C@@H]1CO[C@@H]1CCN(c2ncccn2)[C@H](C)C1 (stereo in doubt) [Example 329]
pEC50: 7.66
--
MOLECULE: CS(=O)(=O)N[C@H]1CCCN(C(=O)C2CCOCC2)[C@H]1CO[C@H]1CC[C@@H](c2ccccc2)CC1 (relative stereo) [Example 121]
pEC50: 8.06
--
MOLECULE: COC(=O)N1CCC[C@H](NS(C)(=O)=O)[C@@H]1CO[C@H]1CC[C@]2(CC1)OCc1ccccc12 [Example 275]
pEC50: 5.51
--
MOLECULE: COC(=O)N1CCC[C@H](NS(C)(=O)=O)[C@@H]1CO[C@H]1CC[C@@H](c2cc(F)cc(F)c2)CC1 [Example 241]
pEC50: 8.92
--
MOLECULE: CCNC(=O)N1CCC[C@H](NS(C)(=O)=O)[C@@H]1CO[C@H]1CC[C@@H](c2cccc(F)c2F)CC1 (relative stereo) [Example 136]
pEC50: 9.66
--
MOLECULE: CC(=O)N1CCC[C@H](NS(C)(=O)=O)[C@@H]1CO[C@H]1CC[C@@H](c2ccc(F)c(F)c2)CC1 (relative stereo) [Example 141]
pEC50: 6.34

----------
This section presents compounds with their documented Emax values.
- EXPERIMENTAL_SYSTEM: human orexin type 2 receptor (hOX2R) (Homo sapiens (Human), UniProt O43614)
- Sequence (O43614 whole entry): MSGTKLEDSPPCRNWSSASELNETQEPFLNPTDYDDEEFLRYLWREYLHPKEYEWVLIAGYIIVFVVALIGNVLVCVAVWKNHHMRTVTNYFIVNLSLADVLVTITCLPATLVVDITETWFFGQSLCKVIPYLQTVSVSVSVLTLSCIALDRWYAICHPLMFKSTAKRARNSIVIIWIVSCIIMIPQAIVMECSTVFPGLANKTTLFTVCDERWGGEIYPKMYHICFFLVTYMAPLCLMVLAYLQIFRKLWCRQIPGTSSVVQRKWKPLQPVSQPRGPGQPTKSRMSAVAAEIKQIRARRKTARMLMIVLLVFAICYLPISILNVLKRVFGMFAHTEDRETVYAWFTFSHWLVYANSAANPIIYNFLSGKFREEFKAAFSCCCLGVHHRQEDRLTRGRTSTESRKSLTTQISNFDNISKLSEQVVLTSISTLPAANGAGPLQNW
- MEASUREMENT_PROTOCOL: Measurement of orexin type 2 receptor agonist activity (Experimental Example 2-1, FLIPR TETRA, intracellular Ca2+)
- Assay type: cell-based
- CONDITION_NOTES: CHO dhfr- cells expressing hOX2R, FLIPR TETRA, Fluo-4AM; read-out: Emax (%)

COMPOUND: CCNC(=O)N1CCC[C@H](NS(C)(=O)=O)[C@@H]1CO[C@H]1C[C@@H](Cc2ccccc2)C1 (relative stereo)
Emax, %: 95
--
COMPOUND: CC(=O)N1CCC[C@H](NS(C)(=O)=O)[C@@H]1CO[C@H]1CC[C@@H](c2cccc(OC(F)(F)F)c2)CC1 (relative stereo)
Emax, %: 76
--
COMPOUND: CC(=O)N1CCC[C@H](NS(C)(=O)=O)[C@@H]1CO[C@H]1CC[C@@H](c2ccc(F)cc2F)CC1 (relative stereo)
Emax, %: 106
--
COMPOUND: COC(=O)N1CCC[C@H](NS(C)(=O)=O)[C@@H]1CO[C@H]1CC[C@@]2(CC1)OCc1ccccc12
Emax, %: 118
--
COMPOUND: CC(=O)N1CCC[C@H](NS(C)(=O)=O)[C@@H]1CO[C@H]1CC[C@@H](c2cccc(F)c2)CC1
Emax, %: 100
--
COMPOUND: CS(=O)(=O)N[C@H]1CCCN(C(=O)C2CC2)[C@H]1COC1CCN(c2ncccn2)CC1(F)F (relative stereo)
Emax, %: 94
